- Test system: REH
- experiment.summary: selective drug sensitivity score (sDSS, relative to normal bone marrow) (sDSS (score)); higher = more potent and effective on the cell line relative to normal bone marrow cells;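 note: ALL cell lines in 384-well plates, five doses spanning 10,000-fold, each plate scaled between vehicle and 100 µmol/L benzalkonium chloride controls, sDSS an adapted area-under-curve metric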
- condition.parameters: 72 h
experimental.endpoint: selective drug sensitivity score
Write no unit; give the number alone.

- molecule: "N#CC1(c2ccc(NC(=O)c3cccnc3NCc3ccncc3)cc2)CCCC1 [Apatinib] (top concentration 10000 nM)"
  observed: 0.1
- molecule: "Cc1ccc(-n2nc(C(C)(C)C)cc2NC(=O)Nc2ccc(OCCN3CCOCC3)c3ccccc23)cc1 [Doramapimod] (top concentration 10000 nM)"
  observed: 5.36
- molecule: "O=C1NC(=O)[C@@H](c2cn3c4c(cccc24)CCC3)[C@@H]1c1c[nH]c2ccccc12 [Tivantinib] (top concentration 1000 nM)"
  observed: 7.78
- molecule: "CN1CCN(C2CCC(n3cc(-c4ccc(Oc5ccccc5)cc4)c4c(N)ncnc43)CC2)CC1 (stereo not drawn) (top concentration 10000 nM)"
  observed: 4.12
- molecule: "Cc1cc(Nc2nc(N[C@@H](C)c3ncc(F)cn3)ncc2Cl)[nH]n1 [AZD1480] (top concentration 1000 nM)"
  observed: -4.08
- molecule: "Nc1ncnc2c1nc(N)n2[C@@H]1O[C@H](CO)[C@@H](O)[C@H]1O [8-amino-adenosine] (top concentration 50000 nM)"
  observed: 2.88
- molecule: "O=C(Nc1cnn2ccc(N3CCC[C@@H]3c3cc(F)ccc3F)nc12)N1CC[C@H](O)C1 [Larotrectinib] (top concentration 1000 nM)"
  observed: -0.62
- molecule: "C=CC(=O)N1CC/C(=C\\c2ccc(F)c([N+](=O)[O-])c2)C(=O)/C(=C/c2ccc(F)c([N+](=O)[O-])c2)C1 [VLX1570] (top concentration 10000 nM)"
  observed: 1.98

Q. Answer with the recorded selective drug sensitivity score of C=CC(=O)Nc1cccc(Nc2nc(Nc3ccc(N4CCN(C(C)=O)CC4)cc3OC)ncc2C(F)(F)F)c1 [Rociletinib] (top concentration 10000 nM) only.
A. 0.84

Q. Answer with the recorded selective drug sensitivity score of COC12C(COC(N)=O)C3=C(C(=O)C(C)=C(N)C3=O)N1CC1NC12 (stereo in doubt) [Mitomycin_C] (top concentration 10000 nM) only.
A. 3.74

Q. Answer with the recorded selective drug sensitivity score of CCC1(c2ccc(N)cc2)CCC(=O)NC1=O (stereo not drawn) [Aminoglutethimide] (top concentration 10000 nM) only.
A. 0.6

Q. Answer with the recorded selective drug sensitivity score of Cn1cc(CNCC2CCN(c3ncc(C(=O)NO)cn3)CC2)c2ccccc21 [Quisinostat] (top concentration 1000 nM) only.
A. -1.12

Q. Answer with the recorded selective drug sensitivity score of CC(C)[C@H]1C(=O)N[C@@H](CCCNC(=N)N)C(=O)NCC(=O)N[C@@H](CC(=O)O)C(=O)N[C@H](Cc2ccccc2)C(=O)N1C [Cilengitide] (top concentration 10000 nM) only.
A. 0

Q. Answer with the recorded selective drug sensitivity score of CC(C)Nc1cc(-c2c[nH]c(C(=O)N[C@H](CO)c3cccc(Cl)c3)c2)c(Cl)cn1 [Ulixertinib] (top concentration 10000 nM) only.
A. -1.08

Q. Answer with the recorded selective drug sensitivity score of O=C(O)c1ccc(CN2CCC(CN[C@@H]3C[C@H]3c3ccccc3)CC2)cc1 (top concentration 100000 nM) only.
A. -0.22

----------
- Tested on: MOLT-16
- experiment.summary: selective drug sensitivity score (sDSS, relative to normal bone marrow) (sDSS (score)); higher = more potent and effective on the cell line relative to normal bone marrow cells
- condition.parameters: 72 h
experimental.endpoint: selective drug sensitivity score
Write no unit; give the number alone.

Recorded selective drug sensitivity score, per entry:
- compound: "CCOc1ccn(-c2ccc(F)cc2)c(=O)c1C(=O)Nc1ccc(Oc2ccnc(N)c2Cl)c(F)c1 (top concentration 2500 nM)"
  observed: 0
- compound: "Cc1[nH]nc(C(F)(F)F)c1Cc1sc2c(c1C(=O)N1C[C@](C)(O)CO1)c(=O)n(C)c(=O)n2C(C)C [AZD3965] (top concentration 1000 nM)"
  observed: 0
- compound: "CCCCCCCCc1ccc(CCC(N)(CO)CO)cc1 [Fingolimod] (top concentration 10000 nM)"
  observed: 5.38

# next compound below
Q. Answer with the recorded selective drug sensitivity score of Nc1ccccc1NC(=O)c1ccc(CNC(=O)OCc2cccnc2)cc1 [Entinostat] (top concentration 10000 nM) only.
A. 6.58

----------
- System: COG-LL-402h
- experiment.summary: selective drug sensitivity score (sDSS, relative to normal bone marrow) (sDSS (score)); higher = more potent and effective on the cell line relative to normal bone marrow cells
- condition.parameters: 72 h
This listing pairs molecules with measured selective drug sensitivity score.
Write no unit; give the number alone.

Recorded selective drug sensitivity score, per entry:
- molecule: "CCn1c(-c2nonc2N)nc2c(C#CC(C)(C)O)ncc(OC[C@H]3CCCNC3)c21 (top concentration 10000 nM)"
  selective drug sensitivity score: 8.28
- molecule: "O=C(Nc1ccc2[nH]nc(-c3ccncc3)c2c1)[C@@H]1CCN(CC(=O)N2CCN(c3ccc(-c4ncccn4)cc3)CC2)C1 (top concentration 10000 nM)"
  selective drug sensitivity score: 1.76
- molecule: "C=CC(=O)N1CC/C(=C\\c2ccc(F)c([N+](=O)[O-])c2)C(=O)/C(=C/c2ccc(F)c([N+](=O)[O-])c2)C1 [VLX1570] (top concentration 10000 nM)"
  selective drug sensitivity score: 5.28
- molecule: "COc1cc2c(NC3CCN(C(C)C)CC3)nc(C3CCCCC3)nc2cc1OCCCN1CCCC1 [UNC0638] (top concentration 10000 nM)"
  selective drug sensitivity score: 1.16
- molecule: "CCc1c(C(=O)C(N)=O)c2c(OCC(=O)O)cccc2n1Cc1ccccc1 [Varespladib] (top concentration 10000 nM)"
  selective drug sensitivity score: 6.36

Q. Answer with the recorded selective drug sensitivity score of COc1cc2c(Nc3ccc(Cl)c(Cl)c3F)ncnc2cc1OC[C@@H]1C[C@@H]2CN(C)C[C@@H]2C1 [Tesevatinib] (top concentration 1000 nM) only.
A. 1.64

Q. Answer with the recorded selective drug sensitivity score of C[C@@H]1CN(C(=O)c2ccc(NC(=O)c3cc(O[C@H](C)c4c(Cl)ccc(F)c4Cl)c(N)nn3)cc2)C[C@H](C)N1 [Ensartinib] (top concentration 1000 nM) only.
A. -2.34

----------
This listing pairs molecules with measured selective drug sensitivity score.
- Tested on: LC4-1
- experiment.summary: selective drug sensitivity score (sDSS, relative to normal bone marrow) (sDSS (score)); higher = more potent and effective on the cell line relative to normal bone marrow cells
- condition.parameters: 72 h
Write no unit; give the number alone.

- molecule: "COc1cc(C(=O)O)ccc1NC(=O)[C@@H]1N[C@@H](CC(C)(C)C)[C@](C#N)(c2ccc(Cl)cc2F)[C@H]1c1cccc(Cl)c1F [Idasanutlin] (top concentration 10000 nM)"
  experimental.endpoint: "selective drug sensitivity score"
  observed: 19.1
- molecule: "CCN1CCN(c2ccc(Nc3cc(N(C)C(=O)Nc4c(Cl)c(OC)cc(OC)c4Cl)ncn3)cc2)CC1 [Infigratinib] (top concentration 1000 nM)"
  experimental.endpoint: "selective drug sensitivity score"
  observed: 0
- molecule: "Cc1sc2c(c1C)C(c1ccc(Cl)cc1)=N[C@@H](CC(=O)NCCCCNC(=O)COc1cccc3c1C(=O)N(C1CCC(=O)NC1=O)C3=O)c1nnc(C)n1-2 (some centres undefined) [dBET1] (top concentration 10000 nM)"
  experimental.endpoint: "selective drug sensitivity score"
  observed: 5.22
- molecule: "C[C@@H]1COCCN1c1cc(C2([S@](C)(=N)=O)CC2)nc(-c2cc[nH]c3nccc2-3)n1 [AZD6738] (top concentration 25000 nM)"
  experimental.endpoint: "selective drug sensitivity score"
  observed: 8.48
- molecule: "Cn1ncc(Cl)c1-c1cc(C(=O)N[C@H](CN)Cc2ccc(F)c(F)c2)oc1Cl [Uprosertib] (top concentration 10000 nM)"
  experimental.endpoint: "selective drug sensitivity score"
  observed: -1.2
- molecule: "CNc1ncc2cc(-c3cc(NC(=O)NCCC(C)(C)C)c(F)cc3C)c(C)nc2n1 (top concentration 10000 nM)"
  experimental.endpoint: "selective drug sensitivity score"
  observed: 7.86
- molecule: "O=C(/C=C/c1cccc(S(=O)(=O)Nc2ccccc2)c1)NO [Belinostat] (top concentration 10000 nM)"
  experimental.endpoint: "selective drug sensitivity score"
  observed: 9.7
- molecule: "Nc1cc(F)ccc1NC(=O)c1ccc(CNC(=O)/C=C/c2cccnc2)cc1 [Tucidinostat] (top concentration 10000 nM)"
  experimental.endpoint: "selective drug sensitivity score"
  observed: 3.94

Q. Answer with the recorded selective drug sensitivity score of NC1(C(=O)N[C@@H](CCO)c2ccc(Cl)cc2)CCN(c2ncnc3[nH]ccc23)CC1 [AZD-5363] (top concentration 10000 nM) only.
A. 1.22

Q. Answer with the recorded selective drug sensitivity score of Cn1cc(-c2[nH]c3cc(NC(=O)[C@H](N)C4CCCCC4)cc4c3c2C=NNC4=O)cn1 (top concentration 10000 nM) only.
A. 7.58

Q. Answer with the recorded selective drug sensitivity score of COc1cc(N2CCN(C)CC2)ccc1Nc1nccc(-c2cn(C)c3cnccc23)n1 [AZ191] (top concentration 10000 nM) only.
A. -2.72

Q. Answer with the recorded selective drug sensitivity score of O=C1NC(=O)[C@@H](c2cn3c4c(cccc24)CCC3)[C@@H]1c1c[nH]c2ccccc12 [Tivantinib] (top concentration 1000 nM) only.
A. 4.08

Q. Answer with the recorded selective drug sensitivity score of O=C(Nc1c[nH]nc1-c1nc2ccc(CN3CCOCC3)cc2[nH]1)NC1CC1 [AT9283] (top concentration 1000 nM) only.
A. 12.4

Q. Answer with the recorded selective drug sensitivity score of CCOc1ccn(-c2ccc(F)cc2)c(=O)c1C(=O)Nc1ccc(Oc2ccnc(N)c2Cl)c(F)c1 (top concentration 2500 nM) only.
A. 0
